SYSTEM UNDER TEST: T1, G9a and GLP (Homo sapiens, UniProt Q96KQ7+Q9H9B1)
T1 sequence (Q96KQ7 2-1210 limits assumed): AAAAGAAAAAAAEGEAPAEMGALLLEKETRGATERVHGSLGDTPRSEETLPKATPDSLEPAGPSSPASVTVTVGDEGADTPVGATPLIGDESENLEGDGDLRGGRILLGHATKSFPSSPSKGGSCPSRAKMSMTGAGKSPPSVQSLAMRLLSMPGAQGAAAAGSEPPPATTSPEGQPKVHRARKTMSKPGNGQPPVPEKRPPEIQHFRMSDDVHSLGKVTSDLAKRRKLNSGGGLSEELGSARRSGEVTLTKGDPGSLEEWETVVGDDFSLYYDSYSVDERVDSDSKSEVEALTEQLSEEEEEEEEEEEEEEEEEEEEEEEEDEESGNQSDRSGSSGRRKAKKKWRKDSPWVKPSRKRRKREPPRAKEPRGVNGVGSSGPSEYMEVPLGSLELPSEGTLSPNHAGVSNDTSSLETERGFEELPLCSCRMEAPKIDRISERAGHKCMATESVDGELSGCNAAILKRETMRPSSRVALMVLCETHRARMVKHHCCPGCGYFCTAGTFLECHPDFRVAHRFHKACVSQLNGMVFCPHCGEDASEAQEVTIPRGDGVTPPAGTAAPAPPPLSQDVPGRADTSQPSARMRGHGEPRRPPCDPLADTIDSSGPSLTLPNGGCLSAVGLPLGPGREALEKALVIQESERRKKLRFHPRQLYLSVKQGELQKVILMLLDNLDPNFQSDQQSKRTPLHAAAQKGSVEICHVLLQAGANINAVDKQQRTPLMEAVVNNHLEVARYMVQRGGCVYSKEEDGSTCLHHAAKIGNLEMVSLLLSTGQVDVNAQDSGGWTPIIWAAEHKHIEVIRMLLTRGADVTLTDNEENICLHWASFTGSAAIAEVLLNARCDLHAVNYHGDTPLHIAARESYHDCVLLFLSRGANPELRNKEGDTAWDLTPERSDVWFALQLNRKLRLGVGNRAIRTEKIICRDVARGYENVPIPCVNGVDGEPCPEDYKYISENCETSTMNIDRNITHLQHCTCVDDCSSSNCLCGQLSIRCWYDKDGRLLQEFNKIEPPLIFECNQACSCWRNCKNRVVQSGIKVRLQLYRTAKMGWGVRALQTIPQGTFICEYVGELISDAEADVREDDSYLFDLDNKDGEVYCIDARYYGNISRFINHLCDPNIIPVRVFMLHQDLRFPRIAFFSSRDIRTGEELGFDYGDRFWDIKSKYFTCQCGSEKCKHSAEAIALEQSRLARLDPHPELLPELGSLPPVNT
T1 sequence (Q9H9B1 2-1298 limits assumed): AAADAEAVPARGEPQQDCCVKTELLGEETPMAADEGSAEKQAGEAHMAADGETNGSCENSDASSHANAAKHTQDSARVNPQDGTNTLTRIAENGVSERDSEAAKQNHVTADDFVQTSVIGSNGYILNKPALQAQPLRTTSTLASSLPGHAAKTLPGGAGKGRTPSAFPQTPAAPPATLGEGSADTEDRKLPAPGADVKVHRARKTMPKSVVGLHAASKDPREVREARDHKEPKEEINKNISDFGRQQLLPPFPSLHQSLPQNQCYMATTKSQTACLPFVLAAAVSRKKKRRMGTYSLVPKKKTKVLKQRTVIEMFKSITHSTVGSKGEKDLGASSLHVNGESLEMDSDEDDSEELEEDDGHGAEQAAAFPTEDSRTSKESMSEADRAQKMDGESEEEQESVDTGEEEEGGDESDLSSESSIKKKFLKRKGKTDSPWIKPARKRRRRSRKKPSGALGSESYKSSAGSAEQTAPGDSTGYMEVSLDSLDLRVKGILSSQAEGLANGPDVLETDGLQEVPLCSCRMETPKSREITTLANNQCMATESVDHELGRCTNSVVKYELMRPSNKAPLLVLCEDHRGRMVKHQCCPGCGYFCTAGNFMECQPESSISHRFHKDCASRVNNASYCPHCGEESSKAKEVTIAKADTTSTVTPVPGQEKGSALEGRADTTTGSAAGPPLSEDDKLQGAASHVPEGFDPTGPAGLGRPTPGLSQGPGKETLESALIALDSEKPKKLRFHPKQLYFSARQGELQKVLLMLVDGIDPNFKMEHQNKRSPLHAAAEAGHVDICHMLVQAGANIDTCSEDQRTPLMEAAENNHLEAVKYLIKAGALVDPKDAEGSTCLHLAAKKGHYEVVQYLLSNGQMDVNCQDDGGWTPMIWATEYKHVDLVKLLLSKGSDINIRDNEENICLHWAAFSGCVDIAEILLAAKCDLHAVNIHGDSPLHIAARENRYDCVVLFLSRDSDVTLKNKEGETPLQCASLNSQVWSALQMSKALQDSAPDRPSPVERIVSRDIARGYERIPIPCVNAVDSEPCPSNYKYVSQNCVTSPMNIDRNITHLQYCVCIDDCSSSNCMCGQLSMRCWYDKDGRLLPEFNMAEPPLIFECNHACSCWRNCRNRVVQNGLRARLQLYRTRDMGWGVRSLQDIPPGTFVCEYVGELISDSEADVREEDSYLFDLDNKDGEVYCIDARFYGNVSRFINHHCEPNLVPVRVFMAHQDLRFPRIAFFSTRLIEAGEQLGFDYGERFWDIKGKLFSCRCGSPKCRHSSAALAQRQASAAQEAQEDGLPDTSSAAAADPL
ASSAY METHOD TEXT: Triple SILAC pull-down after UNC0638 treatment of 293T cells, DMSO/UNC0638 ratio of protein captured by 3×MBT;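 also: mass spectrometry (Q-Exactive) SILAC quantitation, DMSO/UNC0638 ratio computed after subtracting 3×MBTD355N mutant pull-down background, only proteins with at least twofold 3×MBT over mutant signal considered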
Type: cell-based
Design: endogenous in cells; host or cells: HEK 293T
CONDITION LABEL: average of UNC Light and UNC Heavy experiments

{"columns": ["MOLECULE", "Relative to UNC0638 Average / log base 2"],
 "data": [
  ["ZC3HAV1L (protein, UniProt Q96H79 2-300, looked up) Zinc finger CCCH-type …: AEPTVCSFLTKVLCAHGGRMFLKDLRGHVELSEARLRDVLQRAGPERFLLQEVETQEGLGDAEAEAAAGAVGGGGTSAWRVVAVSSVRLCARYQRGECQACDQLHFCRRHMLGKCPNRDCWSTCTLSHDIHTPVNMQVLKSHGLFGLNENQLRILLLQNDPCLLPEVCLLYNKGEALYGYCNLKDKCNKFHVCKSFVKGECKLQTCKRSHQLIHAASLKLLQDQGLNIPSVVNFQIISTYKHMKLHKMLENTDNSSPSTEHSQGLEKQGVHAAGAAEAGPLASVPAQSAKKPCPVSCEK", 0.15],
  ["SNRPA1 (protein, UniProt P09661 2-255, looked up) U2 small nuclear …: VKLTAELIEQAAQYTNAVRDRELDLRGYKIPVIENLGATLDQFDAIDFSDNEIRKLDGFPLLRRLKTLLVNNNRICRIGEGLDQALPCLTELILTNNSLVELGDLDPLASLKSLTYLSILRNPVTNKKHYRLYVIYKVPQVRVLDFQKVKLKERQEAEKMFKGKRGAQLAKDIARRSKTFNPGAGLPTDKKKGGPSPGDVEAIKNAIANASTLAEVERLKGLLQSGQIPGRERRSGPTDDGEEEMEEDTVTNGS", 0.15]
]}
